- System: Cutibacterium acnes strain 3 (BWH-003 25505801)
- method notes: Growth of C. acnes strain 3 in RCM with antibacterial agent, optical density
- Assay type: cell-based
- experimental setup: strain 3, OD at 48 hours, RCM, read-out: IC50

molecule	limit qualifier	IC50 (µM)
C[C@@H](O)[C@H]1C(=O)N2C(C(=O)O)=C(S[C@@H]3CN[C@H](C(=O)Nc4cccc(C(=O)O)c4)C3)[C@H](C)[C@H]12	=	0.16
CO/N=C(\C(=O)N[C@@H]1C(=O)N2C(C(=O)[O-])=C(C[N+]3(C)CCCC3)CS[C@H]12)c1csc(N)n1 [Cefepime]	=	2.5
CC1(C)S[C@@H]2[C@H](NC(=O)[C@H](N)c3ccc(O)cc3)C(=O)N2[C@H]1C(=O)O	=	0.0098
O=C(OOC(=O)c1ccccc1)c1ccccc1 [Benzoyl Peroxide]	>	2560
CO/N=C(\C(=O)N[C@@H]1C(=O)N2C(C(=O)O)=C(CSc3nc(=O)c(=O)[nH]n3C)CS[C@H]12)c1csc(N)n1	=	0.0098
OO [Hydrogen Peroxide]	=	2560
Cc1ncc([N+](=O)[O-])n1CCO	>	5120
NC[C@H]1O[C@H](O[C@H]2[C@H](O)[C@@H](O[C@H]3O[C@H](CO)[C@@H](O)[C@H](N)[C@H]3O)[C@H](N)C[C@@H]2N)[C@H](O)[C@@H](O)[C@@H]1O	=	80

---

Each entry below carries its reported pIC50.
- Test system: Cutibacterium acnes strain 12 (HM-539 (HL086PA1))
- method notes: Growth of C. acnes strain 12 in RCM with antibacterial agent, optical density
- Type: cell-based
- experimental setup: strain 12, OD at 48 hours, RCM, read-out: IC50
pIC50: −log10 of the molar value.
reported endpoint: pIC50

> print(dat)
                                   compound                               test.target  reported.endpoint  reported.value
1  CO/N=C(\C(=O)N[C@@H]1C(=O)N2C(C(=O)[O-])=C(C[N+]3(C)CCCC3)CS[C@H]12)c1csc(N)n1 [Cefepime]  Cutibacterium acnes strain 12 (HM-539 (HL086PA1))              pIC50            6.80
2  C[C@@H](O)[C@H]1C(=O)N2C(C(=O)O)=C(S[C@@H]3CN[C@H](C(=O)Nc4cccc(C(=O)O)c4)C3)[C@H](C)[C@H]12  Cutibacterium acnes strain 12 (HM-539 (HL086PA1))              pIC50            8.01
3  CO/N=C(\C(=O)N[C@@H]1C(=O)N2C(C(=O)O)=C(CSc3nc(=O)c(=O)[nH]n3C)CS[C@H]12)c1csc(N)n1  Cutibacterium acnes strain 12 (HM-539 (HL086PA1))              pIC50            8.01
4                 Cc1ncc([N+](=O)[O-])n1CCO  Cutibacterium acnes strain 12 (HM-539 (HL086PA1))              pIC50            2.29

---

- Test system: Cutibacterium acnes strain 10 (HM-523 (HL053PA2))
- method notes: Growth of C. acnes strain 10 in RCM with antibacterial agent, optical density
- Assay type: cell-based
- experimental setup: strain 10, OD at 48 hours, RCM, read-out: IC50
Each record here notes measured IC50.
reported endpoint: IC50 (µM)

compound	output unit	limit qualifier	reported value
OO [Hydrogen Peroxide]	µM	=	2560
CO/N=C(\C(=O)N[C@@H]1C(=O)N2C(C(=O)[O-])=C(C[N+]3(C)CCCC3)CS[C@H]12)c1csc(N)n1 [Cefepime]	µM	=	0.31
NC[C@H]1O[C@H](O[C@H]2[C@H](O)[C@@H](O[C@H]3O[C@H](CO)[C@@H](O)[C@H](N)[C@H]3O)[C@H](N)C[C@@H]2N)[C@H](O)[C@@H](O)[C@@H]1O	µM	=	320
Cc1ncc([N+](=O)[O-])n1CCO	µM	>	5120

---

- Test system: Cutibacterium acnes strain 16 (KPL1847)
- method notes: Growth of C. acnes strain 16 in RCM with antibacterial agent, optical density
- Type: cell-based
- experimental setup: strain 16, OD at 48 hours, RCM, read-out: IC50
- Description: Seven different strains of Cutibacterium acnes were grown in test tubes in Reinforced Clostridial Medium (RCM). Each strain was divided into different wells of mulita-well plates (96-well and 384-well plates were used). […] Absorbance was measured and quantified as optical density (OD) as a proxy for cell biomass. The OD was recorded at regular intervals over several hours. […] The OD is listed in arbitrary units determined by the spectrophotometers. […]
hey, just use YES if measured IC50 is less than 2 µM, otherwise NO

compound	group
OO [Hydrogen Peroxide]	NO
CC1(C)S[C@@H]2[C@H](NC(=O)[C@H](N)c3ccc(O)cc3)C(=O)N2[C@H]1C(=O)O	YES
NC[C@H]1O[C@H](O[C@H]2[C@H](O)[C@@H](O[C@H]3O[C@H](CO)[C@@H](O)[C@H](N)[C@H]3O)[C@H](N)C[C@@H]2N)[C@H](O)[C@@H](O)[C@@H]1O	NO
Cc1ncc([N+](=O)[O-])n1CCO	NO
C[C@@H](O)[C@H]1C(=O)N2C(C(=O)O)=C(S[C@@H]3CN[C@H](C(=O)Nc4cccc(C(=O)O)c4)C3)[C@H](C)[C@H]12	YES
O=C(OOC(=O)c1ccccc1)c1ccccc1 [Benzoyl Peroxide]	NO
CO/N=C(\C(=O)N[C@@H]1C(=O)N2C(C(=O)[O-])=C(C[N+]3(C)CCCC3)CS[C@H]12)c1csc(N)n1 [Cefepime]	NO

---

- Test system: Cutibacterium acnes strain 12 (HM-539 (HL086PA1))
- method notes: Growth of C. acnes strain 12 in RCM with antibacterial agent, optical density
- Assay type: cell-based
- experimental setup: strain 12, OD at 48 hours, RCM, read-out: IC50
pIC50: −log10 of the molar value.

compound	pIC50
NC[C@H]1O[C@H](O[C@H]2[C@H](O)[C@@H](O[C@H]3O[C@H](CO)[C@@H](O)[C@H](N)[C@H]3O)[C@H](N)C[C@@H]2N)[C@H](O)[C@@H](O)[C@@H]1O	3.80
O=C(OOC(=O)c1ccccc1)c1ccccc1 [Benzoyl Peroxide]	2.59
OO [Hydrogen Peroxide]	2.89
CC1(C)S[C@@H]2[C@H](NC(=O)[C@H](N)c3ccc(O)cc3)C(=O)N2[C@H]1C(=O)O	7.41
